Data provenance is patent US7582604B2.

Test system: human red blood cells (hRBC)
Type: cell-based
Conditions: red cells of human, 1 h
Where a SMILES comes first, the peptide text is derived from it. [ ]: non-standard residue; d: D form.
measured-attribute: Hemolysis at 100 μg/ml (percentage hemolysis)

*Q* Dear colleague, I am looking for the recorded Hemolysis at 100 μg/ml (percentage hemolysis) of the following compound: CC(C)C[C@@H]1NC(=O)[C@H](Cc2c[nH]c3ccccc23)NC(=O)[C@H](CCCNC(=N)N)NC(=O)[C@@H]2CCCN2C(=O)[C@H]2CCCN2C(=O)[C@H](CCCNC(=N)N)NC(=O)[C@H](Cc2ccc(O)cc2)NC(=O)[C@H](Cc2ccc(O)cc2)NC(=O)[C@H](C(C)C)NC(=O)[C@H](Cc2c[nH]c3ccccc23)NC(=O)[C@H](CCCNC(=N)N)NC(=O)[C@H](CCCNC(=N)N)NC(=O)[C@H](CCCCN)NC(=O)[C@H](CCCCN)NC1=O [compound 6] (cyclo(RWLKKRRWVYYR[dP]P))
*A* 0.5%
